B1: glmS ribozyme (parent)
chain: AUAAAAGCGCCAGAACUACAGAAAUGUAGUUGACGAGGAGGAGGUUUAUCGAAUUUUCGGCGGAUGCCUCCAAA

Variants of: B1
Experiment: self-cleavage kobs at 640 uM GlcN6P; higher = faster cleavage; RNA array
Settings: with glucosamine-6-phosphate
Variants at the floor of the assay were thinned out.
Below, each entry is listed with its recorded self-cleavage kobs at 640 uM GlcN6P.
Measurement kind: self-cleavage kobs at 640 uM GlcN6P

>>> result("C34U A48G")
"< 1e-05 s⁻¹"
>>> result("A48U G62U")
"< 1e-05 s⁻¹"
>>> result("A15G C50G C70U")
"0.000167 s⁻¹"
>>> result("G44C C50U U54C")
"< 1e-05 s⁻¹"
>>> result("A6C G44A G51U")
"< 1e-05 s⁻¹"
>>> result("G29U G60A")
"< 1e-05 s⁻¹"
>>> result("A14G G29C U56A")
"0.000364 s⁻¹"
>>> result("A12G G13U")
"3.63e-05 s⁻¹"
>>> result("G9U U55C G62U")
"< 1e-05 s⁻¹"
>>> result("C8G A42C U47A")
"< 1e-05 s⁻¹"
>>> result("A14C U65G C70U")
"0.000315 s⁻¹"

The reported numbers originate from the supplement of paper PMC7125110.
